- study-system: T1, Aβ42 oligomers (UniProt P05067 672-713)
- T1 construct: domain: Aβ42; Oligomeric state
- T1 sequence (P05067 672-713 limits assumed): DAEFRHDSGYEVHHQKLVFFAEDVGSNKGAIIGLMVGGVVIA
- procedure-summary: ELISA on coated Aβ42 oligomers, His-tagged polypeptide at 1 µg per well
Below, each entry is listed alongside its reported OD450.
# answer = number (no unit)

Please list OD450 recorded for the binder SFFNKR (ZR derivative with one Asn deleted; not shown: histidine tag) [ZR4-ΔN (SEQ ID NO: 3), histidine-tagged] 0.49
